test: label from the status in PepcDB records;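 note: failed if final PepcDB status was selected cloned or expressed and not failed if soluble or beyond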
PARAMETER: protein production

[
  {
    "SEQUENCE CODE": "MKKIKALALFSGGLDSLLSMKLLIDQGIEVTALHFNIGFGGNKDKREYFENATAQIGAKLLVCDIREQFFNDVLFKPKYGYGKYFNPCIDCHANMFRNAFYKMLELNADFVLSGEVLGQRPKSQRKEALNQVRKLVREVGEEARFDPVLDRTQAGGKKPQFLDELLLRPMSAKLLEPTFMEKKGFVDREKLLDVSGRGRSRQLQMIKDYGLKYYEKPGGGCLLTDIQVSNKIKNLKEYREMVFEDSVIVKNGRYFVLPHNARLVVARNEEENHKLDIQHPLMDKIELLNCKGPLSLVDKNASKEDKELAGRIALGYAKTLKNQAYLIQIGDEKRELYPLDKENAREYLFA",
    "EXPERIMENTAL VALUE": "failed"
  },
  {
    "SEQUENCE CODE": "MTAHFRPAVYDLPRDGHTVFRWEHPPQQATVELERLQRKQSLAAAFRVFARLGFDMGGAGHITVRDPGRPDHFWVNPVGVYFGHVRVRDLLLVNPEGAVIEGEGALNLAAFAIHAALHEAHPEVVAAAHAHSLYGKAWSSLGRLLDPLTQDACAFYERHGLFDNFSGVVLEASEGVRIAAALAGRKALILQNHGLLTVGETVEAAVWRFIAMDNAAQTQLLAEAAGTPRPIPHEVARHTARQVGTEFGGWFSFQPYRERIVREEPDFLDLEHHHHHH",
    "EXPERIMENTAL VALUE": "failed"
  }
]

----------
experiment: label from the status in PepcDB records
PARAMETER: protein production

Worked examples follow.
[
  {
    "SEQUENCE CODE": "MHMLFYKSYVREFIGEFLGTFVLMFLGEGATANFHTTGLSGDWYKLCLGWGLAVFFGILVSAKLSGAHLNLAVSIGLSSINKFDLKKIPVYFFAQLLGAFVGTSTVYGLYHGFISNSKIPQFAWETSRNPSISLTGAFFNELILTGILLLVILVVVDENICGKFHILKLSSVVGLIILCIGITFGGNTGFALNPSRDLGSRFLSLIAYGKDTFTKDNFYFWVPLVAPCVGSVVFCQFYDKVICPLVDLANNEKDGVDL",
    "protein production": "not failed"
  },
  {
    "SEQUENCE CODE": "MAIRLTHLRKPLAYSRSFDVCIPFFRSISSFEAVEKAIKCAVETKEYLRIPELVVSLKEPYQNSTLFSFLSAFQRHHRIRVIDEILQSFVPVRPRSLPKIVYSSLLTYCLQSSDPLPLSFAILQRTLRSGCLPNPQTHLLLSDAWLERRRGSQSVADIINEMKLIGYSPDTGTCNYLVSSLCAVDKLDEAIKVVEEMSAAGCIPDVESYGAVINSLCLARKTTDVVKIVKEMVSKAGISPRKGMLTKVAAALRANREIWKAIEMIEFVESRDYPVEFESYEVVVEGCLEVREYILAGKVVMRMTDRGFIPYIKVRQKVVERLINIGEWKLACTVRQRVSELRS",
    "protein production": "failed"
  },
  {
    "SEQUENCE CODE": "MSKKIRNTEVDHLFDAILTLENKEECYTFFEDVCTVNELLSISQRYEVAKMLREGKTYLDISNATGASTATISRVNRSLNYGNDGYDMVLERVLKKDE",
    "protein production": "not failed"
  },
  {
    "SEQUENCE CODE": "MSDSLFLSLAKFDVILSGSTNSNILHDVMGQVIDRSEIQDLNANNKPTKKIDFHLRDQHDTRLACILWGKYAEIVDKACQESTDGIVVCLIRFAKINLYNDTRSVSNFFDVSQVFVDPTLAELDLFKQSIP",
    "protein production": "failed"
  },
  {
    "SEQUENCE CODE": "MKFEILQQLNAERAARRPAIVVTDTATGAQRLVKAADIAADPLAAELGKQLRMGKSASIEIDGRKLFLNVYAPTAKLVIVGAVHISQALAPLARSLGYDVTVVDPRTAFASPERFPDVPLIAEWPDVALPPLNIDHYTAFVALTHDPKIDDPALLHAFARDCFYIGALGSKKTHAKRLERLKGQGASDADLGRIHAPIGLAIGAVSPSEIAVSIMAEITAALRLPASSKAAAA",
    "protein production": "failed"
  }
]

Please examine the following record next.
input: For the sequence ESICLIGHSLGGDLARYFASEFEEVKKLILLDGGYLDLDKILPLDTELEETKNYIKSQIVSDLDVLTSKEKSEAKHWSENMEKAVRQSYHWNVEYNRYELAINYENIEAILRLRRKIQAFKREVGDTLFISPRYPNEATWREEALKELPDYFDTIFLENFGHELYTQAPKEIASLMNEWL , what protein production is on record?
output: failed
